System: Burkholderia pseudomallei Human/Blood/OH/US/1994
Test: microbe, parasite or virus in culture
Assay type: cell-based
Conditions: Burkholderia pseudomallei, read-out: MIC B. pseudomallei Human/Blood/OH
Reported Metric: MIC

[in] MIC lookup needed for COC(=O)N/C=C/CCC(C)c1cc(O)c(C(=O)C(C)=Cc2ccc(OCC(F)(F)F)cc2)c(=O)o1 (mixture of isomers) , thanks.
[out] > 50 µg/mL

[in] // query MIC value for entry CCCOc1ccc(C=C(C)C(=O)c2c(O)cc(C(C)CC/C=C/NC(=O)OC)oc2=O)c(C)c1 (mixture of isomers)
[out] > 50 µg/mL

[in] Can you share its MIC? I mean this compound: COC(=O)N/C=C/CCC(C)c1cc(O)c(C(=O)C(C)=Cc2ccc(OCC(C)(C)C)cc2)c(=O)o1 (mixture of isomers)
[out] > 50 µg/mL

[in] What measured MIC goes with COC(=O)N/C=C/CCC(C)c1cc(O)c(C(=O)C(C)=Cc2ccc(OCCC(F)(F)F)cc2)c(=O)o1 (mixture of isomers) ?
[out] > 50 µg/mL

[in] Which MIC reading was recorded for the compound COC(=O)N/C=C/CCC(C)c1cc(O)c(C(=O)C(C)=Cc2ccc(OCC(F)F)cc2C)c(=O)o1 (mixture of isomers) ?
[out] > 50 µg/mL

[in] Bench note: what MIC did COC(=O)N/C=C/CCC(C)c1cc(O)c(C(=O)C(C)=Cc2ccc(CCC(F)(F)F)cc2C)c(=O)o1 (mixture of isomers) show?
[out] 50 µg/mL
